Cited source: the supplement of paper PMC9732359

- Procedure details: protein stability index of a GFP-peptide fusion (yeast GPS) (PSI 1-4); higher = more stable; sorted into four equal gates, so the index is relative within each strain
- Details: pdr5∆
Entries annotated with measured protein stability index
Response field accepts a number only; no unit should be typed.

# example entries with known answers
PTLGERLDNLQDIKKAK [DSN1] : 1.25
AGTQSSKFSKQQAKGAF [RPL24A] : 3.27
SLEDPQVRKKQIETINF [YDL116W/NUP84] : 1.82
GSGKSNMMDAISFVLGV [SMC1] : 3.17
LSYYVEETNVDIGVLEE [SMC4] : 3.38
PIAQPATDVEARAVQDN [RPL13A] : 3.17

## Task Which value of protein stability index has been reported for DKDVKAKYETSILEHSG [FAS2] in the records?
## Result 3.33

## Task Which value of protein stability index has been reported for EKGENPSCVYNLIGVIT [UBP6] in the records?
## Result 2.79

## Task Which value of protein stability index has been reported for NDSKEESTTEATGNESQ [YLR335W/NUP2] in the records?
## Result 3.14

## Task Which value of protein stability index has been reported for DEHNELMRQALAIKDSK [RPO21] in the records?
## Result 2.93
